target: Urokinase-type plasminogen activator (Homo sapiens); assay: ComInhibition of Human Serine Protease Urokinase Plasminogen Activator (u-PA).
pKi: −log10 of the molar value.
Threshold check on pKi: at or above 5 gives MET, strictly below gives NOT MET.

IN: Decide: pKi of `COc1ccc(O)c(-c2nc3ccc(C(=N)N)cc3[nH]2)c1` >= 5?
OUT: MET

IN: Is pKi at least 5? Consider `N=C(N)c1ccc2nc(-c3ccc4ccccc4c3O)[nH]c2c1`
OUT: MET

IN: Determine whether this compound has pKi no lower than 5: `COc1cccc(-c2nc3ccc(C(=N)N)cc3[nH]2)c1O`
OUT: MET

IN: Dear colleague, could you confirm whether `N=C(N)c1ccc2nc(-c3ccccc3)[nH]c2c1` has pKi at or above 5?
OUT: NOT MET

IN: Hi, just wondering whether `N=C(N)c1ccc2[nH]c(-c3cccc(F)c3O)nc2c1` shows pKi of 5 or higher.
OUT: MET
